experimental_system: T1, human IL-12 (human, UniProt P29460 23-328; P29459 23-219)
T1 construct: Recombinant (Peprotech); FLAG-tagged IL-12 in the flow cytometry assays, biotinylated in the IL-12Rβ2 assay; also called hIL-12
T1 sequence 1: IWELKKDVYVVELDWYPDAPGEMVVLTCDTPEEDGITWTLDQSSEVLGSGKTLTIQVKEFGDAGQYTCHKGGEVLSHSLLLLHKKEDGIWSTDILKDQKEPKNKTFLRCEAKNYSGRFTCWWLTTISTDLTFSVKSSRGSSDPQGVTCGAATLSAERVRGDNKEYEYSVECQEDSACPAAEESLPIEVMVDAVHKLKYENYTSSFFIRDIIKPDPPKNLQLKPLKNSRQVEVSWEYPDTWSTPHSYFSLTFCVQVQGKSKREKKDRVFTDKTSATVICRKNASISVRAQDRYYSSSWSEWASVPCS
T1 sequence 2: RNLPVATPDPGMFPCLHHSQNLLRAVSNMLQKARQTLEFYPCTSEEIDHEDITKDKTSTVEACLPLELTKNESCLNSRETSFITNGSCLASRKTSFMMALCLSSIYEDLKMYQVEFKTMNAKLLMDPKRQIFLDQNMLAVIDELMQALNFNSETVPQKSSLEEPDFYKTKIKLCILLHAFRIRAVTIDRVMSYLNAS
assay: SPR, IgG on Protein A
quantity_kind: kon (M⁻¹ s⁻¹)

Antibody 180 (antibody, human IgG1, kappa, V domains shown) VH: EVQLVQSGAEVKKPGATVKISCKASGYTLSDYYLHWVRQAPEKGLEWMGWIDPENGDTESAPKFQGRVTITADTSTDTGYLELSSLRSEDTAVYYCAANKELRYFDVWGQGTLVTVSS VL: DIQMTQSPSSVSASVGDRVTITCRASQSISINLHWYQQKPGKAPKLLIYFASQSISGVPSRFSGSGSGTDFSLTINSLQTEDFATYYCQQSNSFPLTFGGGTKVEIKR :: 5.31e+06
Antibody 181 (antibody, human IgG1, kappa, V domains shown) VH: EVQLVQSGAEVKKPGATVKISCKASGYTFSDYYLHWVRQAPEKGLEWMGWIDPENGDTEHAPKFQGRVTITADTSTDTGYLELSSLRSEDTAVYYCAANKELRYFDVWGQGTLVTVSS VL: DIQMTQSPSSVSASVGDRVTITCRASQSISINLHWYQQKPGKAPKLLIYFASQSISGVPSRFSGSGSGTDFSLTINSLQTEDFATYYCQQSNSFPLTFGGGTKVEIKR :: 3.57e+06
Antibody 192 (antibody, human IgG1, kappa, V domains shown) VH: QVQLVQSGAEVKKPGASVKVSCKASGYTLTDYYLHWVRQAPGQGLEWMGWIDPENGDTEYAPKFQGRVTMTTDTSTSTAYMELRSLRSDDTAVYYCAANKELRYFDVWGQGTMVTVSS VL: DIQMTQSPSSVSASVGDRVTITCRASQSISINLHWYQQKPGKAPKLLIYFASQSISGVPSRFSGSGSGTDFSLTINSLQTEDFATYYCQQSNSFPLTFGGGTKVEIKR :: 4.16e+06
Antibody 194 (antibody, human IgG1, kappa, V domains shown) VH: QVQLVQSGAEVKKPGASVKVSCKASGYTLTDYYLHWVRQAPGQGLEWMGWIDPENGDTESAPKFQGRVTMTTDTSTSTAYMELRSLRSDDTAVYYCAANKELRYFDVWGQGTMVTVSS VL: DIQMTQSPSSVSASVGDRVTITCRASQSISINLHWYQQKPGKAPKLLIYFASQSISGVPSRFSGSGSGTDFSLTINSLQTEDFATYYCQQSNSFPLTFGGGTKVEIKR :: 2.09e+06
Antibody 193 (antibody, human IgG1, kappa, V domains shown) VH: QVQLVQSGAEVKKPGASVKVSCKASGYTFTDYYLHWVRQAPGQGLEWMGWIDPENGDTESAPKFQGRVTMTTDTSTSTAYMELRSLRSDDTAVYYCAANKELRYFDVWGQGTMVTVSS VL: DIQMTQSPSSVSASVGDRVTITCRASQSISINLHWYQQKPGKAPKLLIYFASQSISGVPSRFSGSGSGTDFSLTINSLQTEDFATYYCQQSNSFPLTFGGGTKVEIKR :: 2.6e+06
Antibody 182 (antibody, human IgG1, kappa, V domains shown) VH: EVQLVQSGAEVKKPGATVKISCKASGYTLSDYYLHWVRQAPEKGLEWMGWIDPENGDTEHAPKFQGRVTITADTSTDTGYLELSSLRSEDTAVYYCAANKELRYFDVWGQGTLVTVSS VL: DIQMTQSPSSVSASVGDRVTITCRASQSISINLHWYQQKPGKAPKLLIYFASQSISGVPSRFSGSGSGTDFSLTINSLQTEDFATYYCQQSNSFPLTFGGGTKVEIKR :: 6.23e+06
